B1: ZNF263 (parent)
chain: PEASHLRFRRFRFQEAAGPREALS

Variants of: B1
Test: protein stability index of a GFP-peptide fusion (GPS, HEK-293T) (PSI 1-6); higher = more stable;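 further: lentivirally expressed fusions sorted by FACS into six bins by GFP to DsRed ratio, PSI derived from sequencing read proportions per bin multiplied by bin number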
Details: c terminus: a fixed tail appended
Field: protein stability index. Provide a value for each of the variants that follow.
Give bare numbers.

| mutant | protein stability index |
| --- | --- |
| H5P | 1.49 |
| A3H | 2.84 |
| E21H | 2.84 |
| R10I | 1.86 |
| E21W | 2.01 |
| R7H | 2.93 |

The record that follows has no protein stability index shown yet.
### Prompt Which protein stability index reading was recorded for the variant A22N ?
### Response 2.87
